B1: Pistol ribozyme (parent)
chain: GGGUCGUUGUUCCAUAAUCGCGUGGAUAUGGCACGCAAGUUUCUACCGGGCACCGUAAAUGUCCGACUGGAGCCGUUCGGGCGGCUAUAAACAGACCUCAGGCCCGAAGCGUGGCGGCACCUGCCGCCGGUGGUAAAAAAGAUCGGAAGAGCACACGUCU

variants of: B1; test: aptazyme ON/OFF ratio, guanine; higher = stronger switching; co-transcriptional cleavage with and without guanine

{"mutation": "U7A G9C U10C U11A C12G C13A", "aptazyme ON/OFF ratio": 1.16}
{"mutation": "U7G U8C U11C C12A C13G", "aptazyme ON/OFF ratio": 1.26}
{"mutation": "U8G G9A U10C U11G C13A", "aptazyme ON/OFF ratio": 1.11}
{"mutation": "U7A U8A G9U U11C C12G C13G", "aptazyme ON/OFF ratio": 1.04}
{"mutation": "U7A U8A U10A U11A C13G", "aptazyme ON/OFF ratio": 1.18}
